Values from the NIST ThermoML archive (doi:10.1016/j.fluid.2015.01.026)

# Condition details: 298.15 K; 101.33 kPa; Liquid; Vibrating tube method
Readout: mass density (kg/m3)

CCCCCCCCCCCCCCCC: 770.221
CCCCCCCCCCCCCC: 759.275
CCCCCCCCCC: 726.347
CC(=O)c1ccccc1: 1023.05
CCCCCCCCCCCC: 741.523
